meta.source: ChEMBL document CHEMBL1681752

system.under.test: Acetyl-CoA carboxylase (Homo sapiens, UniProt Q13085+O00763)
protocol: Inhibition of human ACC1/2 assessed as [14C]malonyl-CoA synthesis
Format: protein assay
readout: IC50 (nM)

# example entries with known answers
>>> experimental_value("CCNC(=O)Nc1sc2ccc(C)cc2c1C(=O)N1CCN(C2CCN(C(=O)OC(C)C)CC2)CC1")
32
>>> experimental_value("CCNC(=O)Nc1sc2cc(Cl)ccc2c1C(=O)N1CCN(C2CCN(C(=O)OC(C)(C)C(F)(F)F)CC2)CC1")
38

a: CCNC(=O)Nc1sc2cc(C)ccc2c1C(=O)N1CCN(C2CCN(C(=O)OC(C)(C)CF)CC2)CC1
b: CCNC(=O)Nc1sc2ccccc2c1C(=O)N1CCN(C2CCN(C(=O)OCC)CC2)CC1
[in] Min IC50? a | b Indicate which entry you chose by stating its label.
[out] a
